Target Under Test: human Tissue Factor (hTF), endogenously expressed on human TF-positive cells (human, UniProt P13726 33-295)
Assay Details: cell-based or functional assay
Quantity: % GM-CSF, 16 nM antibody, MDA-MB-231 cells + FVIIa (%)
Give bare numbers, in %.

Example binders with recorded % GM-CSF, 16 nM antibody, MDA-MB-231 cells + FVIIa:
[
  {
    "Binder": "anti-TF antibody 25A (antibody, human IgG1, V domains shown, Human IgG1) VH: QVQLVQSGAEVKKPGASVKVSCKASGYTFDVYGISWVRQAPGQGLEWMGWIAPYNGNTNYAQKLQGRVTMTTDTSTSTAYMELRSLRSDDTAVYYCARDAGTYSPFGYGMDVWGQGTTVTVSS VL: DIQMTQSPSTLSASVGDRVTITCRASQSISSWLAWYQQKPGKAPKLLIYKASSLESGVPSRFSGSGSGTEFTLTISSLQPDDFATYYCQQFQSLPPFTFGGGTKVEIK",
    "Unit String": "%",
    "Numeric Value": 22
  },
  {
    "Binder": "anti-TF antibody 43D8 (antibody, human IgG1, kappa, V domains shown, Human IgG1) VH: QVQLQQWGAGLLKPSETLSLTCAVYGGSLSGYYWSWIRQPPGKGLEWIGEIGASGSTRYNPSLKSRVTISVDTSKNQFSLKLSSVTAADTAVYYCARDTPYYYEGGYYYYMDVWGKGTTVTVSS VL: EIVLTQSPGTLSLSPGERATLSCRASQSVSSSFLAWYQQKPGQAPRLLIYGAYSRATGIPDRFSGSGSGTDFTLTISRLEPEDFAVYYCQQAGVVPYTFGGGTKVEIKR",
    "Unit String": "%",
    "Numeric Value": 11
  },
  {
    "Binder": "anti-TF antibody 54E (antibody, human IgG1, V domains shown, Human IgG1) VH: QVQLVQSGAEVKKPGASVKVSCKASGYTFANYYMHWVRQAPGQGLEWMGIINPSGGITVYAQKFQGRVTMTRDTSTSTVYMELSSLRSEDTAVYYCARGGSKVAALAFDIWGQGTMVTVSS VL: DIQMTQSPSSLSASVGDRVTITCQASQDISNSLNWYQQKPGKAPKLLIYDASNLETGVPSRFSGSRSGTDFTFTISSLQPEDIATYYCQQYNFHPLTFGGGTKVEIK",
    "Unit String": "%",
    "Numeric Value": 5
  }
]

Note: attention shifts to another entry.
Query: Recorded % GM-CSF, 16 nM antibody, MDA-MB-231 cells + FVIIa of anti-TF antibody 25G (antibody, human IgG1, kappa, V domains shown, Human IgG1) VH: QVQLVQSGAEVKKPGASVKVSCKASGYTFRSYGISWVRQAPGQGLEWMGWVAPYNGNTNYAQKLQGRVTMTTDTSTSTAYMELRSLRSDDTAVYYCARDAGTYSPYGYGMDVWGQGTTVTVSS VL: DIQMTQSPSTLSASVGDRVTITCRASQSISSWLAWYQQKPGKAPKLLIYKASSLESGVPSRFSGSGSGTEFTLTISSLQPDDFATYYCQQFQSLPPFTFGGGTKVEIKR , please.
Response: 32
